Listed binders paired with reported pKd
Target: T1, CIRV p19 (Carnation Italian ringspot virus, UniProt Q66104 1-172)
T1 sequence: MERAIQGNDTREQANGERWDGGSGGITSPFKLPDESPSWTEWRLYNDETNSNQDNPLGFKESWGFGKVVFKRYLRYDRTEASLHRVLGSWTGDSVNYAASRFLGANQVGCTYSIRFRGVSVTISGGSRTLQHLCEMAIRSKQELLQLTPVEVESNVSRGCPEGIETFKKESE
Test: EMSA
Conditions: protein: recombinant; tags: GST tag removed (PreScission, pGEX-6P-1); chain copies: 2; label: 5'-32P; 3' overhangs 2 nt, mismatches and G-U wobbles
pKd: −log10 of the molar value.
endpoint label: pKd

- binder: "AtmiR168a (dsRNA, 5'-phosphate) RNA 1: UCGCUUGGUGCAGGUCGGGAA RNA 2: CCCGCCUUGCAUCAACUGAAU"
  measurement: 8.60
- binder: "AtmiR168a variant 1 (dsRNA, 5'-phosphate) RNA 1: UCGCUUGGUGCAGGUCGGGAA RNA 2: CCCGCCCUGCAUCAACUGAAU"
  measurement: 8.50
- binder: "AtmiR168a variant 2 (dsRNA, 5'-phosphate) RNA 1: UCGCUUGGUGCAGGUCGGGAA RNA 2: CCCGCCUUGCACCAACUGAAU"
  measurement: 9.15
